conditions: in methanol, 323.15 K
Give solubility (mole fraction) for every item shown.

query: Please look up its solubility (mole fraction): COc1c(NS(=O)(=O)c2ccc(C)cc2)cc(-c2ccc3ncnc(N4CCOCC4)c3c2)cc1C(N)=O
result: 0.00217

query: # lookup: solubility (mole fraction) of COc1c(NS(=O)(=O)c2ccc(F)cc2)cc(-c2ccc3nccc(N4CCOCC4)c3c2)cc1C(N)=O
result: 0.000829

query: Requested field: solubility (mole fraction). Item: COc1c(NS(=O)(=O)c2ccc(F)cc2)cc(-c2ccc3ncnc(N4CCOCC4)c3c2)cc1C(N)=O
result: 0.00105

---

conditions: in chloroform, 318.15 K
readoutType: solubility (mole fraction)
Please state the value as a number alone, without comment.

query: Would you mind telling me what solubility (mole fraction) value was observed for COc1c(NS(=O)(=O)c2ccc(C)cc2)cc(-c2ccc3ncnc(N4CCOCC4)c3c2)cc1C(N)=O ?
result: 0.00637

query: Tell me the measured solubility (mole fraction) of COc1c(NS(=O)(=O)c2ccc(F)cc2)cc(-c2ccc3nccc(N4CCOCC4)c3c2)cc1C(N)=O , please.
result: 0.000121

query: Give its solubility (mole fraction) value. Item: COc1c(NS(=O)(=O)c2ccc(F)cc2)cc(-c2ccc3ncnc(N4CCOCC4)c3c2)cc1C(N)=O
result: 0.000303

---

details: in methanol, 298.15 K
readoutType: solubility (mole fraction)
Answer with a bare number; do not write a unit.

query: Fill in the blank: the reported solubility (mole fraction) of COc1c(NS(=O)(=O)c2ccc(C)cc2)cc(-c2ccc3ncnc(N4CCOCC4)c3c2)cc1C(N)=O is ____.
result: 0.000919

query: For the compound COc1c(NS(=O)(=O)c2ccc(F)cc2)cc(-c2ccc3ncnc(N4CCOCC4)c3c2)cc1C(N)=O , what solubility (mole fraction) is on record?
result: 0.00043

query: Endpoint output: solubility (mole fraction) of COc1c(NS(=O)(=O)c2ccc(F)cc2)cc(-c2ccc3nccc(N4CCOCC4)c3c2)cc1C(N)=O . Value?
result: 0.000338

---

details: in water, 318.15 K
readoutType: solubility (mole fraction)
Output spec: single numeric token, no unit.

query: What does the record list as solubility (mole fraction) for COc1c(NS(=O)(=O)c2ccc(F)cc2)cc(-c2ccc3nccc(N4CCOCC4)c3c2)cc1C(N)=O ?
result: 1.28e-06

query: Fill in: solubility (mole fraction) of COc1c(NS(=O)(=O)c2ccc(C)cc2)cc(-c2ccc3ncnc(N4CCOCC4)c3c2)cc1C(N)=O is ___
result: 3.2e-06

query: Using the record for COc1c(NS(=O)(=O)c2ccc(F)cc2)cc(-c2ccc3ncnc(N4CCOCC4)c3c2)cc1C(N)=O , report its solubility (mole fraction).
result: 1.5e-06

---

Would you kindly list solubility (mole fraction) for each of these molecules?
details: in acetone, 318.15 K
Answer field: number only, no words.

query: Requested read-out: solubility (mole fraction). Entry: COc1c(NS(=O)(=O)c2ccc(F)cc2)cc(-c2ccc3nccc(N4CCOCC4)c3c2)cc1C(N)=O
result: 0.00115

query: Entry under review: COc1c(NS(=O)(=O)c2ccc(F)cc2)cc(-c2ccc3ncnc(N4CCOCC4)c3c2)cc1C(N)=O . Reported solubility (mole fraction)?
result: 0.000592

query: // lookup solubility (mole fraction) for COc1c(NS(=O)(=O)c2ccc(C)cc2)cc(-c2ccc3ncnc(N4CCOCC4)c3c2)cc1C(N)=O
result: 0.00185
